The reported measurements were obtained from the Deep4Chem optical property database.

Test: solvent given as SMILES
Conditions: in O
READOUT_TYPE: fluorescence lifetime (ns)

Sample answers from the record:
-- ask In one line, give reported fluorescence lifetime of the entry O=c1c2cc(Cl)ccc2[nH]c2ccc(COO)cc12 .
-- reply 16.8

-- ask In one line, give reported fluorescence lifetime of the entry N[C@@H](Cc1ccc(O)cc1)C(=O)O .
-- reply 3.27

a = Cn1c2ccc(S(=O)(=O)O)cc2c(=O)c2cc(S(=O)(=O)O)ccc21
b = NS(=O)(=O)c1ccc(N2N=C(c3ccc(O)cc3)CC2c2ccccc2)cc1 (stereo not given)
-- ask Between the two listed entries a and b , which has its fluorescence lifetime at the higher number? Choose, then provide that item's label.
-- reply a

----------
// fluorescence lifetime lookup, one value per entry
Assay: solvent given as SMILES
Details: in Cc1ccccc1
Reply with just the number (in ns).

-- ask In one line, give reported fluorescence lifetime of the entry CCN1/C(=C\c2c(-c3ccc(N(C)C)cc3)c(=O)c2=O)C=Cc2ccccc21 .
-- reply 1.85

-- ask In one line, give reported fluorescence lifetime of the entry CN(C)c1ccc2nc(/C=C/c3ccccc3)c(=O)oc2c1 .
-- reply 3

-- ask In one line, give reported fluorescence lifetime of the entry CCN(CC)c1ccc2cc(/C(Cl)=C/C=C/C(=C(C#N)C#N)c3ccc4c(c3)c3ccccc3n4CC)c(=O)oc2c1 .
-- reply 1.39

-- ask In one line, give reported fluorescence lifetime of the entry CC(C)(C)c1ccc2c(c1)B1c3cc(C(C)(C)C)ccc3Oc3cc(N4c5ccccc5C(C)(C)c5ccccc54)cc(c31)O2 .
-- reply 6.6

// next entry
-- ask In one line, give reported fluorescence lifetime of the entry O=Cc1ccc(N(c2ccc(C=O)cc2)c2ccc(-c3ccc4c(c3)C(=O)c3ccccc3C4=O)cc2)cc1 .
-- reply 6.83

----------
Assay: solvent given as SMILES
Details: in CCCCCC
READOUT_TYPE: fluorescence lifetime (ns)

Sample answers from the record:
-- ask In one line, give reported fluorescence lifetime of the entry CCNc1ccc2c(C(F)(F)F)cc(=O)oc2c1 .
-- reply 3.3

-- ask In one line, give reported fluorescence lifetime of the entry Cc1cc(C)c(C2=[N+]3C(=Cc4c(C)cc(C)n4[B-]3(F)F)c3ccccc32)[nH]1 .
-- reply 7.17

a = Nc1ccc(/C=C/c2cccnc2)cc1
b = CCCCc1cc(CCCC)c2ccc3c(CCCC)cc(CCCC)c4ccc1c2c43
c = c1ccc2c(c1)[nH]c1ncccc12
-- ask List the 3 entries from lowest fluorescence lifetime to highest fluorescence lifetime value. Show the ranking through the labels, in the order asked for.
-- reply a, c, b

----------
Experiment: solvent given as SMILES
Details: in O
READOUT_TYPE: fluorescence lifetime (ns)

-- ask In one line, give reported fluorescence lifetime of the entry COC(=O)C([NH3+])Cc1ccc2oc(-c3ccncc3)nc2c1 (configuration not stated) .
-- reply 0.999

A = COc1ccc2c(c1)c(=O)c1ccccc1n2CCCCCC(=O)O
B = O=C(O)CCCCCNC(=O)c1cccc2c(=O)c3ccccc3[nH]c12
-- ask Hello, I am sorting some records. Could you say if A or B has the smaller fluorescence lifetime value? Choose, then provide that item's label.
-- reply B

a = CCCCCn1c2ccc(S(=O)(=O)O)cc2c(=O)c2cc(S(=O)(=O)O)ccc21
b = CC(=O)OCCOCCN1C(=O)c2cc(NCCOCCO)c3c4c(cc(NCCOCCO)c(c24)C1=O)C(=O)N(CCOCCOC(C)=O)C3=O
c = CCOC(=O)CCCCCn1c2ccccc2c(=O)c2cc(N)ccc21
d = Cc1ccc(N(CC(=O)[O-])CC(=O)[O-])cc1OCCOc1cc(-c2cc3ccc(C(=O)[O-])cc3[nH]2)ccc1N(CC(=O)[O-])CC(=O)[O-]
-- ask # desc sort on fluorescence lifetime across 4 molecules Show the ranking through the labels, in the order asked for.
-- reply a, c, b, d

I = CCN1CCCc2cc3c(cc21)Oc1cc2c(cc1=N3)C(CS(=O)(=O)[O-])CC(C)(C)[N+]=2CCCC(=O)[O-] (configuration not stated)
II = COc1ccc2cc([C@H](C)C(=O)O)ccc2c1
-- ask Between the two listed entries I and II , which has its fluorescence lifetime at the higher number? Choose, then provide that item's label.
-- reply II

A = O=C([O-])c1ccccc1-c1c2cc(I)c(=O)c(I)c-2oc2c(I)c([O-])c(I)cc12
B = C[NH+](C)c1c2ccccc2cc2ccccc12
C = NC(=O)C1=CN([C@H]2C[C@H](O)[C@@H](COP(=O)([O-])OP(=O)([O-])OC[C@H]3O[C@@H](n4cnc5c(N)ncnc54)C[C@@H]3O)O2)C=CC1
D = CN(C)c1ccc2c(-c3ccc(N)cc3C(=O)[O-])c3ccc(=[N+](C)C)cc-3oc2c1
-- ask # desc sort on fluorescence lifetime across 4 molecules Show the ranking through the labels, in the order asked for.
-- reply B, D, C, A

----------
Experiment: solvent given as SMILES
Conditions: in C1CCOC1
READOUT_TYPE: fluorescence lifetime (ns)

Sample answers from the record:
-- ask In one line, give reported fluorescence lifetime of the entry CCOc1cc2c(cc1/C=C/C(=C(C#N)C#N)c1ccccc1)c1ccccc1n2CC .
-- reply 5.66

-- ask In one line, give reported fluorescence lifetime of the entry c1ccc(/C(=C(\c2ccccc2)c2ccccc2-c2ccccc2)c2ccccc2-c2ccccc2)cc1 .
-- reply 4.7

-- ask In one line, give reported fluorescence lifetime of the entry N#C[Se]CCCCCOc1ccc2ccc(=O)oc2c1 .
-- reply 1.17

-- ask In one line, give reported fluorescence lifetime of the entry O=C1NC(=O)c2c1c1c3ccccc3[nH]c1c1[nH]c3ccccc3c21 .
-- reply 8.6

-- ask In one line, give reported fluorescence lifetime of the entry CC(=O)O[B-]1(OC(C)=O)OC(/C=C/c2ccc(C)cc2)=CC(/C=C/c2ccc(C)cc2)=[O+]1 .
-- reply 1.32

A = CCn1c2ccccc2c2cc(C#Cc3cc(C#Cc4ccc5c(c4)c4ccccc4n5CC)nc(C#N)n3)ccc21
B = FC(F)(F)c1ccc(C2=CC3=c4cc(-c5ccc(C(F)(F)F)cc5)c5nc(C(F)(F)C(F)(F)C(F)(F)F)nc6c(-c7ccc(C(F)(F)F)cc7)cc(c4c65)C4=CC(c5ccc(C(F)(F)F)cc5)=C5N=C(C(F)(F)C(F)(F)C(F)(F)F)N=C2C5C43)cc1 (centres undefined)
C = COc1ccc2cc(C#Cc3ccc([N+](=O)[O-])cc3)ccc2c1
D = N#C/C(=C\c1ccc(C=C(c2ccccc2)c2ccccc2)cc1)c1ccccc1
-- ask List the 4 entries from lowest fluorescence lifetime to highest fluorescence lifetime value. Show the ranking through the labels, in the order asked for.
-- reply C, D, B, A

----------
// fluorescence lifetime lookup, one value per entry
Assay: solvent given as SMILES
Settings: in Cc1ccccc1
Reply with just the number (in ns).

-- ask In one line, give reported fluorescence lifetime of the entry c1ccc(-c2cc(-c3ccccc3)cc(-c3ccc4c(c3)C3(c5ccccc5-4)c4ccccc4-c4c3c3c5ccccc5c(-c5cc(-c6ccccc6)cc(-c6ccccc6)c5)cc3c3ccccc43)c2)cc1 (centres undefined) .
-- reply 2.14

-- ask In one line, give reported fluorescence lifetime of the entry COC(=O)C(Cc1ccc2oc(-c3ccc4c(c3)c3ccccc3n4-c3ccccc3)nc2c1)NC(=O)OC(C)(C)C (centres undefined) .
-- reply 1.66

-- ask In one line, give reported fluorescence lifetime of the entry Cc1cc(C)c(C2=[N+]3C(=Cc4c(C)cc(C)n4[B-]3(F)F)c3ccccc32)[nH]1 .
-- reply 6.14

-- ask In one line, give reported fluorescence lifetime of the entry FC(F)(F)c1cc2n(n1)[B-]1(c3ccccc3Oc3ccccc31)[n+]1ccc3ccccc3c1-2 .
-- reply 1.85

----------
Test: solvent given as SMILES
Settings: in CO
READOUT_TYPE: fluorescence lifetime (ns)

I = COC(=O)C(NC(=O)OC(C)(C)C)c1ccc2oc(-c3ccc(F)cc3)nc2c1 (centres undefined)
II = CCN(CC)c1ccc(-c2nc3cc(C(NC(=O)OC(C)(C)C)C(=O)OC)ccc3o2)c(O)c1 (centres undefined)
-- ask Hello, I am sorting some records. Could you say if I or II has the smaller fluorescence lifetime value? Choose, then provide that item's label.
-- reply II
(II: 0.25 ns, I: 1.53 ns)

I = CCCCc1cc(CCCC)c2ccc3c(CCCC)cc(CCCC)c4ccc1c2c43
II = CC(=O)OCCOCCN1C(=O)c2cc(NCCOCCO)c3c4c(cc(NCCOCCO)c(c24)C1=O)C(=O)N(CCOCCOC(C)=O)C3=O
III = Cc1ccc(C2=C3C=C(I)C=[N+]3[B-](F)(F)n3cccc32)cc1
-- ask List the 3 entries from lowest fluorescence lifetime to highest fluorescence lifetime value. Show the ranking through the labels, in the order asked for.
-- reply III, II, I
(III: 0.063 ns, II: 8 ns, I: 75 ns)
